Target: T1, mouse Claudin-6 (CLDN6) (mouse, UniProt Q9Z262 1-219)
T1 construct: whole, on cells; GFP fusion on engineered HEK293T cells; also called Mouse CLDN6; murine CLDN6
T1 sequence (looked up): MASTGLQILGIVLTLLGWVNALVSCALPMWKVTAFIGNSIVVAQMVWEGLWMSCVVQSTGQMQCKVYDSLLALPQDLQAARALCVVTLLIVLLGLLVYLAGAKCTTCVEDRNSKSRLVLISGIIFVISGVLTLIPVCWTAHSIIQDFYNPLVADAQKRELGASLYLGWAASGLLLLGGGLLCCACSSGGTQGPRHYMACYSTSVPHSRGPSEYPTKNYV
Assay: FACS, 293T clone expressing mouse CLDN6, dose not stated (2nd Ab only 1061.72)
Threshold check on FACS fluorescence: strictly below 80000 is Condition met; on or above 80000 is Condition not met.

Asked: Check if FACS fluorescence falls below 80000 for AB1-4 (antibody, V domains shown, humanized) VH: QVQLVQSGAEVKKPGASVKVSCKASGYTFTTYTMHWVRQAPGQGLEWMGFINPSSGYTDYAQKFQGRVTMTADTSTSTVYMELSSLRSEDTAVYYCANGDYYVAYWGQGTLVTVSS VL: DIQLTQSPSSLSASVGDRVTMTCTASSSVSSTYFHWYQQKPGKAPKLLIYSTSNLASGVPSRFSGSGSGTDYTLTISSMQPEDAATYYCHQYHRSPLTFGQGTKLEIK .
Given back: Condition met

Asked: Check if FACS fluorescence falls below 80000 for AB3-5 (antibody, V domains shown, humanized) VH: EVQLLESGGGLVQPGGSMRLSCAASGFTFSNYWMNWVRQAPGKGLEWVAQIRLKSDNYATHYADSVKGRFTISRDDSKNTVYLQMNSLRAEDTGVYYCNDGPPSGYWGQGTLLTVSS VL: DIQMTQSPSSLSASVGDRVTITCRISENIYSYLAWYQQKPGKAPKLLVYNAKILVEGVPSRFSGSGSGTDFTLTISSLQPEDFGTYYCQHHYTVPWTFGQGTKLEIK .
Given back: Condition met

Asked: Check if FACS fluorescence falls below 80000 for AB1-Chim (antibody, V domains shown) VH: QVQLQQSAAELARPGASVKMSCKASGYTFTTYTMHWVKQRPGQGLEWIGFINPSSGYTDYNQKFKDRTTLTADKSSSTVYMQLSSLTSEDSAVYYCANGDYYVAYWGQGTLVTVSA VL: QIVLTQSPAIMSASLGERVTMTCTASSSVSSTYFHWYQQKPGSSPKLWIYSTSNLASGVPRRFSGSASGTSYSLTISSMEAEDAATYYCHQYHRSPLTFGAGTKLELK .
Given back: Condition not met

Asked: Check if FACS fluorescence falls below 80000 for AB3-4 (antibody, V domains shown, humanized) VH: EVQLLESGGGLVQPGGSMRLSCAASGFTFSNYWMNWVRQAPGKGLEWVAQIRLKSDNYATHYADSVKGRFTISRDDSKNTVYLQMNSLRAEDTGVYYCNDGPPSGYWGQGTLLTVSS VL: DIQMTQSPSSLSASVGDRVTITCRISENIYSYLAWYQQKPGKAPKLLIYNAKILVEGVPSRFSGSGSGTDFTLTISSLQPEDFATYYCQHHYTVPWTFGQGTKLEIK .
Given back: Condition met

Asked: Check if FACS fluorescence falls below 80000 for AB11-chim (antibody, V domains shown) VH: DVQLVESGGGLVQPRGSRKLSCAASGFTFSSFGMHWVRQAPEKGLEWVAYISSDSRTIYYADTVKGRFTISRDNPTNTLFLQMTSLRSEDTAMYYCARDYGRTYEAYWGQGTLVTVSA VL: DIVLTQSPASLAVSLGQRATISCRASKSVSTSGYSYIHWYQQKPGQPPKLLIYLASNLESGVPARFSGSGSGTDFTLNIHPVEEEDAATYYCQHSRELPLTFGAGTKLELK .
Given back: Condition met
